# Test system: SW1116 cells
# test-method-notes: Cell viability assay (CCK-8)
# Assay type: cell-based
# settings: Homo sapiens, SW 1116; SW1116, KRAS G12A, 24 h; read-out: IC50 at 24 h
readout: IC50 (µM)
// units = µM; emit number, no label

Recorded IC50 (compound CCCCCCCCCCCC1=C(O)C(=O)C=C(O)C1=O ): 19.5

* * *

# assay-system: TCPTP (Homo sapiens, UniProt P17706)
# Sequence (P17706 1-415): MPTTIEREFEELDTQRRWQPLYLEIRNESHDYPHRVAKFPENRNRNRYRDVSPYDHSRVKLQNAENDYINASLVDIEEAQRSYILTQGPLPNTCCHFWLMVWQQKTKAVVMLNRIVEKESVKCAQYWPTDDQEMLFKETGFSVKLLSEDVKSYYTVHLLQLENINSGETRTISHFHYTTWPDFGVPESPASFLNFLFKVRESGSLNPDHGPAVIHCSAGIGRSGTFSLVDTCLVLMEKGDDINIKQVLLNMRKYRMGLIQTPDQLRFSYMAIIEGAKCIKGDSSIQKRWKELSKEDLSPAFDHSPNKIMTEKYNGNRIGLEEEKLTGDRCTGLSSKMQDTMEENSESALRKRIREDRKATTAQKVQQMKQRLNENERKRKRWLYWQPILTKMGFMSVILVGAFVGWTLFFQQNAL
readout: IC50 (µM)
// units = µM; emit number, no label

compound | assay-system | unit-tag | data-value
CC(C)=CCC[C@]1(C)C=Cc2c(O)c3c(c(CC=C(C)C)c2O1)O[C@]12C(=C[C@@H]4C[C@H]1C(C)(C)O[C@@]2(C/C=C(/C)C(=O)O)C4=O)C3=O [S2448, Gambogic acid] | TCPTP (Homo sapiens, UniProt P17706) | µM | 294
O=C1Nc2ccc(I)cc2/C1=C/c1cc(Br)c(O)c(Br)c1 [S2872, GW5074] | TCPTP (Homo sapiens, UniProt P17706) | µM | 322
CC1(C)CCC(CN2CCN(c3ccc(C(=O)NS(=O)(=O)c4ccc(NCC5CCOCC5)c([N+](=O)[O-])c4)c(Oc4cnc5[nH]ccc5c4)c3)CC2)=C(c2ccc(Cl)cc2)C1 [S8048, Venetoclax] | TCPTP (Homo sapiens, UniProt P17706) | µM | 9.43

Below: the item to evaluate.
Recorded IC50 (compound Cc1cc2c(C(C)C)c(O)c(O)c(C=O)c2c(O)c1-c1c(C)cc2c(C(C)C)c(O)c(O)c(C=O)c2c1O [S2812, AT101] ): 197

* * *

Values of pIC50 reported for UniProtKB P51452 appear below.
Sequence (P51452 whole entry): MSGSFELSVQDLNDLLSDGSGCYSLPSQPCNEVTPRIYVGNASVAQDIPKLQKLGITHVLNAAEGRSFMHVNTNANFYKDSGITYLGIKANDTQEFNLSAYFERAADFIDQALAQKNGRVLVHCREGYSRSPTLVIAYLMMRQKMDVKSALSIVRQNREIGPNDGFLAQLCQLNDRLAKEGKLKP
For clarity, pIC50 is expressed as the negative log10 of concentration in mol/L.

Use these answered entries as a reference point.
smiles-notation | readout | data-value
CC1(C)CCC(CN2CCN(c3ccc(C(=O)NS(=O)(=O)c4ccc(NCC5CCOCC5)c([N+](=O)[O-])c4)c(Oc4cnc5[nH]ccc5c4)c3)CC2)=C(c2ccc(Cl)cc2)C1 | pIC50 | 4.43
Cc1cc2c(C(C)C)c(O)c(O)c(C=O)c2c(O)c1-c1c(C)cc2c(C(C)C)c(O)c(O)c(C=O)c2c1O | pIC50 | 3.85
CC1=NN(c2ccc(C)c(C)c2)C(=O)/C1=N\Nc1cccc(-c2cccc(C(=O)O)c2)c1O | pIC50 | 3.62

Query O=C1Nc2ccc(I)cc2/C1=C/c1cc(Br)c(O)c(Br)c1 on UniProtKB P51452; pIC50 returned: 3.88

Query CC(C)=CCC[C@]1(C)C=Cc2c(O)c3c(c(CC=C(C)C)c2O1)O[C@]12C(=C[C@@H]4C[C@H]1C(C)(C)O[C@@]2(C/C=C(/C)C(=O)O)C4=O)C3=O on UniProtKB P51452; pIC50 returned: 3.91
